- tgt: Tryptase beta-1 (Homo sapiens, UniProt Q15661)
- experimental.protocol: Percentage inhibition against tryptase at 10 uM
- Sequence (Q15661 31-275 limits assumed): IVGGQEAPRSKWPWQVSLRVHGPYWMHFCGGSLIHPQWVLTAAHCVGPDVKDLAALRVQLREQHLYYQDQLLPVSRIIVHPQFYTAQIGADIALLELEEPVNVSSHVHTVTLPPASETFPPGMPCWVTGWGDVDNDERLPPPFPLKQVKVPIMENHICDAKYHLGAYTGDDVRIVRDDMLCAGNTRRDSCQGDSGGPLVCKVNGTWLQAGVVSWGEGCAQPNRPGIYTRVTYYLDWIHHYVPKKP
# inhibition annotations
result.type: inhibition (%)

> print(dat)
                                 mol.smiles  test.value
1  N=C(N)NCCCC(=O)NCCCC[C@@H]1NC(=O)[C@H](CCCCNC(=O)CCCNC(=N)N)NC1=O        59.3
2                         N=C(N)NCCCCC(=O)O        0.23
3  N=C(N)NCC(=O)NCCCC[C@@H]1NC(=O)[C@H](CC(=O)Nc2cccc(C(=N)N)c2)NC1=O        58.6
4  N=C(N)NCCCCC(=O)NCCCC[C@@H]1NC(=O)[C@H](CCCCNC(=O)[C@H](CCCNC(=N)N)NC(=O)c2ccccc2)NC1=O        47.5

---

Quick record: pIC50, Tryptase beta-1 (Homo sapiens).
pIC50: −log10 of the molar value.

compound	pIC50
N=C(N)NCCCC(NC(=O)OCC1c2ccccc2-c2ccccc21)C(=O)NCCCC[C@@H]1NC(=O)[C@H](CC(=O)Nc2cccc(C(=N)N)c2)NC1=O (stereo partly specified)	5.04
N=C(N)NCCCC(=O)NCCCC[C@@H]1NC(=O)[C@H](CCCCNC(=O)CCCNC(=N)N)NC1=O	5.33
CN(CCC(=O)NCCCC[C@@H]1NC(=O)[C@H](CC(=O)Nc2cccc(C(=N)N)c2)NC1=O)C(=N)N	4.89
N=C(N)NCCC[C@H](NC(=O)c1ccccc1)C(=O)NCCCC[C@@H]1NC(=O)[C@H](CC(=O)Nc2cccc(C(=N)N)c2)NC1=O	4.91
N=C(N)NCCC[C@H](NC(=O)OCc1ccccc1)C(=O)NCCCC[C@@H]1NC(=O)[C@H](CCCCNC(=O)[C@H](CCCN=C(N)N)NC(=O)OCc2ccccc2)NC1=O	5.39
N=C(N)NCCCCC(=O)NCCCC[C@@H]1NC(=O)[C@H](CCCCNC(=O)[C@H](CCCNC(=N)N)NC(=O)c2ccccc2)NC1=O	5.03

---

- tgt: Tryptase beta-1 (Homo sapiens, UniProt Q15661)
- experimental.protocol: Percentage inhibition against tryptase at 10 uM
result.type: inhibition (%)

molecule	test.value
N=C(N)NCC(=O)O	-3
N=C(N)NCCC(=O)NCCCC[C@@H]1NC(=O)[C@H](CC(=O)Nc2cccc(C(=N)N)c2)NC1=O	76.5
CN(CCC(=O)NCCCC[C@@H]1NC(=O)[C@H](CC(=O)Nc2cccc(C(=N)N)c2)NC1=O)C(=N)N	62.6
N=C(N)NCCCC(NC(=O)c1ccccc1)C(=O)O (centres undefined)	7.53
N=C(N)NCCCC(NC(=O)OCC1c2ccccc2-c2ccccc21)C(=O)NCCCC[C@@H]1NC(=O)[C@H](CC(=O)Nc2ccc(C(=N)N)cc2)NC1=O (some centres undefined)	64.5
N=C(N)c1cccc(NC(=O)C[C@@H]2NC(=O)[C@H](CCCCNC(=O)CN3CCN=C3N)NC2=O)c1	47.7
N=C(N)NCCC[C@H](NC(=O)c1ccccc1)C(=O)NCCCC[C@@H]1NC(=O)[C@H](CC(=O)Nc2cccc(C(=N)N)c2)NC1=O	70.6
N=C(N)NCCCC(NC(=O)OCc1ccccc1)C(=O)O (centres undefined)	1.97
N=C(N)NCCC[C@H](NC(=O)OCc1ccccc1)C(=O)NCCCC[C@@H]1NC(=O)[C@H](CC(=O)Nc2ccc(C(=N)N)cc2)NC1=O	41.6
N=C(N)NCCCC(=O)NCCCC[C@@H]1NC(=O)[C@H](CCCCNC(=O)[C@H](CCCNC(=N)N)NC(=O)c2ccccc2)NC1=O	80.5
N=C(N)Nc1ccc(C(=O)NCCCC[C@@H]2NC(=O)[C@H](CC(=O)Nc3cccc(C(=N)N)c3)NC2=O)cc1	47.3
N=C(N)NCCCCC(=O)NCCCC[C@@H]1NC(=O)[C@H](CCCCNC(=O)[C@H](CCCNC(=N)N)NC(=O)OCc2ccccc2)NC1=O	68
N=C(N)NCCCC(=O)O	8.92
CN(CCC(=O)NCCCC[C@@H]1NC(=O)[C@H](CCCCNC(=O)CCN=C(N)N)NC1=O)C(=N)N	51.7
N=C(N)NCCC[C@H](N)C(=O)O	3.71
N=C(N)NCCC[C@H](NC(=O)OCc1ccccc1)C(=O)NCCCC[C@@H]1NC(=O)[C@H](CC(=O)Nc2cccc(C(=N)N)c2)NC1=O	59
N=C(N)NCCCC(NC(=O)OCC1c2ccccc2-c2ccccc21)C(=O)NCCCC[C@@H]1NC(=O)[C@H](CC(=O)Nc2cccc(C(=N)N)c2)NC1=O (some centres undefined)	62.6
NC1=NCCN1CC(=O)O	3.24
CN(CCC(=O)NCCCC[C@@H]1NC(=O)[C@H](CCCCNC(=O)CCCN=C(N)N)NC1=O)C(=N)N	36.7
N=C(N)NCCC[C@H](NC(=O)OCc1ccccc1)C(=O)NCCCC[C@@H]1NC(=O)[C@H](CCCCNC(=O)[C@H](CCCN=C(N)N)NC(=O)OCc2ccccc2)NC1=O	48.5
N=C(N)NCCCC(=O)NCCCC[C@@H]1NC(=O)[C@H](CC(=O)Nc2cccc(C(=N)N)c2)NC1=O	54.4
N=C(N)NCCC[C@H](NC(=O)c1ccccc1)C(=O)NCCCC[C@@H]1NC(=O)[C@H](CC(=O)Nc2ccc(C(=N)N)cc2)NC1=O	45
N=C(N)NCCC[C@H](NC(=O)c1ccccc1)C(=O)NCCCC[C@@H]1NC(=O)[C@H](CCCCNC(=O)CCNC(=N)N)NC1=O	31.2
N=C(N)NCCCC(NC(=O)OCC1c2ccccc2-c2ccccc21)C(=O)NCCCC[C@@H]1NC(=O)[C@H](CC(=O)/N=C(\N)NNCCCc2ccccc2)NC1=O (some centres undefined)	49.3
N=C(N)Nc1ccc(C(=O)NCCCC[C@@H]2NC(=O)[C@H](CCCCNC(=O)CN3CCN=C3N)NC2=O)cc1	61.1
N=C(N)Nc1ccc(C(=O)NCCCC[C@@H]2NC(=O)[C@H](CC(=O)Nc3ccc(C(=N)N)cc3)NC2=O)cc1	73.9
N=C(N)NCCC[C@H](NC(=O)OCc1ccccc1)C(=O)NCCCC[C@@H]1NC(=O)[C@H](CCCCNC(=O)[C@H](CCCN=C(N)N)NC(=O)c2ccccc2)NC1=O	43.3
N=C(N)Nc1ccc(C(=O)O)cc1	38.8
N=C(N)NCCCCC(=O)NCCCC[C@@H]1NC(=O)[C@H](CCCCNC(=O)CCCNC(=N)N)NC1=O	44.4
N=C(N)NCCCC(=O)NCCCC[C@@H]1NC(=O)[C@H](CCCCNC(=O)[C@H](CCCNC(=N)N)NC(=O)OCc2ccccc2)NC1=O	83
CN(CCC(=O)O)C(=N)N	2.55
N=C(N)c1ccc(C(=O)O)cc1	2.9
N=C(N)NNC(=O)C[C@@H]1NC(=O)[C@H](CCCCNC(=O)c2ccc(NC(=N)N)cc2)NC1=O	42.5
N=C(N)NCCC(=O)O	-6
